System name: A. pisum native nAChRs, [3H]-imidacloprid binding sites (alpha-Bgt-insensitive)
Construct: gene Apisumα1
Assay: [3H]-IMI saturation binding, filtration
Design: species or system Acyrthosiphon pisum
Experimental setup: 10 mM Tris-HCl pH 7.4, room temperature, 4 h; high-affinity site of two-site fit; labelled compound; read-out: [^3H]-IMI / Kd (nM) / assay level
Metric: Kd
Please give the number followed by its unit.

Known value: A. pisum native nAChRs, [3H]-imidacloprid binding sites (alpha-Bgt-insensitive) Kd of the molecule O=[N+]([O-])N=C1NCCN1Cc1ccc(Cl)nc1 equals 0.16 nM

###

System name: A. pisum native nAChRs, [125I]-alpha-bungarotoxin binding sites (alpha-Bgt-sensitive)
Construct: gene Apisumα1
Design: species or system Acyrthosiphon pisum
Experimental setup: 0.6 nM [125I]-alpha-Bgt, PBS pH 7.2, 0.1% BSA, room temperature, 4 h; low-affinity site; Cheng-Prusoff; table header prints nM, text and IC50 support µM
Metric: Ki (nM)
API: value field is a number in nM; no unit string.

molecule O=[N+]([O-])N=C1NCCN1Cc1ccc(Cl)nc1 , Ki observed: 14600

###

System name: A. pisum native nAChRs, [3H]-imidacloprid binding sites (alpha-Bgt-insensitive)
Construct: gene Apisumα1
Assay: [3H]-IMI competition binding, filtration
Set-up: species or system Acyrthosiphon pisum
Experimental setup: 25 nM [3H]-IMI, 10 mM Tris-HCl pH 7.4, room temperature, 4 h; low-affinity site; Cheng-Prusoff; read-out: [^3H]-IMI / % of high affinity / Ki
Metric: pKi
In textbook form, pKi equals minus log to base ten of the concentration in mol/L.

compound O=[N+]([O-])N=C1NCCN1Cc1ccc(Cl)nc1 , pKi observed: 7.42

###

System name: A. pisum native nAChRs, [3H]-imidacloprid binding sites (alpha-Bgt-insensitive)
Construct: gene Apisumα1
Assay: [3H]-IMI competition binding, filtration
Design: species or system Acyrthosiphon pisum
Experimental setup: 25 nM [3H]-IMI, 10 mM Tris-HCl pH 7.4, room temperature, 4 h; low-affinity site; read-out: [^3H]-IMI / Bmax (fmol/mg) / IC50
Metric: pIC50
In textbook form, pIC50 equals minus log to base ten of the concentration in mol/L.

molecule O=[N+]([O-])N=C1NCCN1Cc1ccc(Cl)nc1 , pIC50 observed: 7.21

###

Kindly supply the reported IC50 values for the records listed here.
System name: A. pisum native nAChRs, [3H]-imidacloprid binding sites (alpha-Bgt-insensitive)
Construct: gene Apisumα1
Assay: [3H]-IMI competition binding, filtration
Parameters: species or system Acyrthosiphon pisum
Experimental setup: 25 nM [3H]-IMI, 10 mM Tris-HCl pH 7.4, room temperature, 4 h; low-affinity site; possibly not strictly competitive; read-out: [^3H]-IMI / Bmax (fmol/mg) / IC50
Description: [3H]-IMI competition binding, filtration on A. pisum native nAChRs, [3H]-imidacloprid binding sites (alpha-Bgt-insensitive)
Please give the number followed by its unit.

Known value: A. pisum native nAChRs, [3H]-imidacloprid binding sites (alpha-Bgt-insensitive) IC50 of the molecule CN1COCN(Cc2cnc(Cl)s2)C1=N[N+](=O)[O-] equals 1680 nM

Known value: A. pisum native nAChRs, [3H]-imidacloprid binding sites (alpha-Bgt-insensitive) IC50 of the molecule CN/C(=N\[N+](=O)[O-])NCc1cnc(Cl)s1 equals 203 nM
